- method_description: Half life in human liver microsomes at 1 uM in presence of NADPH by LC-MS method
- Type: ADME, microsome
measure_name: half-life at 1 µM (h)

compound=CN1CCC(Nc2nc(Nc3ccc(F)c(Cl)c3)nc3ccccc23)CC1.Cl.Cl inequality_sign=> recorded_measurement=4.25
compound=CN1CCN(CCNc2nc(Nc3ccc(F)c(Cl)c3)nc3ccccc23)CC1.Cl.Cl inequality_sign=> recorded_measurement=4.25
compound="COc1cc2nc(Nc3ccc(F)cc3)nc(NCC3CCCO3)c2cc1OC (configuration not stated)" inequality_sign== recorded_measurement=1.07
compound=CN1CCN(CCNc2nc(Nc3ccc(Cl)c(F)c3)nc3ccccc23)CC1.Cl.Cl inequality_sign== recorded_measurement=1.28
compound=COc1cc2nc(Nc3ccc(F)cc3)nc(NCc3ccccc3)c2cc1OC inequality_sign=> recorded_measurement=4.12
compound=CN1CCC(Nc2nc(Nc3ccc(Cl)c(F)c3)nc3ccccc23)CC1.Cl.Cl inequality_sign== recorded_measurement=3.02
compound=COc1ccc(Nc2nc(NCc3ccccc3)c3ccccc3n2)cc1 inequality_sign== recorded_measurement=1.08
